Reported pKd values for the following binders.
molecular target: T1, human CD3ε/δ-His (human, UniProt P07766 23-126; P04234 22-105); experiment: SPR, antibody captured on Protein A chip
T1 construct: Bought recombinant heterodimer with His tag; also called human CD3ε/δ protein
T1 sequence (P07766 23-126, stated change not applied, form in doubt, chain 1 of 2): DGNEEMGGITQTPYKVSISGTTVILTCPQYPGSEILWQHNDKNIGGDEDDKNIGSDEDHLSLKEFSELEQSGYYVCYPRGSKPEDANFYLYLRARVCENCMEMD
T1 sequence (P04234 22-105, stated change not applied, form in doubt, chain 2 of 2): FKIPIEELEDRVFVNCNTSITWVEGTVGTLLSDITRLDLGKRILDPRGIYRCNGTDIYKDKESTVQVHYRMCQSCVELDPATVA
pKd here: minus log base 10 of the concentration, concentration in moles per litre.

binder="7-35.6-H2-L3 humanized antibody (antibody, human IgG1, lambda, V domains shown) VH: EVQLVESGGGLVQPGGSLKLSCAASGFTFNTYAMNWVRQASGKGLEWVGRIRSKINNYATYYGDSVKDRFTISRDDSKNTFYLQMNSLKTEDTAVYYCVIHENYGSISWFAYWGQGTLVTVSS VL: ETVVTQEPSLTVSPGGTVTLTCRSSTGAVTTSNYANWVQQKPGQAFTGLIGGTNNRAPWTPARFSGSLLGGKAALTLSGVQPEDEAEYYCALWYSNHWVFGGGTKLTVLG" result_number=6.84
binder="5-40.21-H3-L1 humanized antibody (antibody, human IgG1, kappa, V domains shown) VH: EVQLVQSGAEVKKPGASVKVSCKASGYTFTSYWMHWVRQAPGQGLEWMGNTYPGSGSTNYDEKFKSRVTITVDSSASTAYMELSSLRSEDTAVYYCTRDRYGVYYFDYWGQGTTVTVSS VL: DIVMTQSPDSLAVSLGERATINCKSSQSLLNSRTRKNYLAWYQQKPGQSPKLLIYWASTRESGVPDRFSGSGSGTDFTLTISSLQAEDVAVYYCTQSYNLRTFGGGTKVEIKR" result_number=6.94

Which pKd value belongs to 6-44.5-H1-L2 humanized antibody (antibody, human IgG1, kappa, V domains shown) VH: EVQLVQSGAEVKKPGSSVKVSCKASGHTFSSHIMHWVRQAPGQGLEWMGYINPNNDRTEYSEKFKGRVTITADKSTSTAYMELSSLRSEDTAVYYCAGEAYYSNSLYAMDYWGQGTTVTVSS VL: DIVMTQSPDSLAVSLGERATINCKSSQSLFNSRTRKNYLAWYQQKPGQSPKLLIYWASTRESGVPDRFSGSGSGTDFTLTISSLQAEDVAVYYCKQSYYLRTFGGGTKVEIKR ?
7.16
